Tested on: M14 melanoma
Assay: NCI-60 one-dose screen, 48 h
Details: 10 µM unless noted
Compounds without any hit were thinned out: in the full panel of roughly 83,000, 20% have a hit. Calls of active or inactive are those of the source. Rule for the calls: active = growth percent below 10; inactive = the rest.
Outcome codes: active, inactive

{"Molecule": "CS(=O)(=O)c1ccc2c(c1)c1c(n2C(=O)c2ccc(Cl)cc2)CCCC1", "Label Value": "inactive"}
{"Molecule": "Nc1c(C(=O)c2ccccc2)sc2nc(-c3cnccn3)cc(-c3cccs3)c12", "Label Value": "inactive"}
{"Molecule": "Nc1nc(-c2cccc([N+](=O)[O-])c2)c(N=Nc2ccccc2[N+](=O)[O-])s1", "Label Value": "inactive"}
{"Molecule": "CC1(C)CC[C@]2(C(=O)N3CCCNCC3)CC[C@]3(C)C(=CC[C@@H]4[C@@]5(C)CCC(=O)C(C)(C)[C@@H]5CC[C@]43C)[C@H]2C1", "Label Value": "inactive"}
{"Molecule": "NC(=O)C(=Cc1ccc(Cl)cc1)C(N)=O", "Label Value": "inactive"}
{"Molecule": "CCN1C(=O)N(CC)C2SC(N/N=C/C=C/c3ccccc3OC)=NC21 (configuration not stated)", "Label Value": "active"}
{"Molecule": "C/C(=N\\NC(=O)CSc1nc2sc3c(c2c(=O)n1-c1ccccc1)CCC(C)C3)c1ccc(Cl)cc1 (configuration not stated)", "Label Value": "active"}
{"Molecule": "CC(C)c1nn(-c2ccccc2)c(N2CCCCC2)c1/C=N/NC(N)=S", "Label Value": "inactive"}
{"Molecule": "COc1ccc(-c2nc3cc(Cl)c(Cl)cc3n2CC(=O)N=Nc2c(O)[nH]c3ccccc23)cc1", "Label Value": "inactive"}
{"Molecule": "O=C(Cn1cc(CN2C(=O)c3ccc([N+](=O)[O-])cc3C2=O)nn1)Nc1ccc(F)cc1Cl", "Label Value": "inactive"}
{"Molecule": "Cc1cc(O)c(=O)cc2c1C[C@H]1CC(C)(C)/C=C/C[C@]3(C)Oc4cc(=O)c(O)cc(C)c4C[C@H]3C[C@H](O)[C@@]1(C)O2", "Label Value": "active"}
{"Molecule": "CC(=O)c1ccc(NC(=O)COc2ccc(C3SCC(=O)N3c3ccc(Br)cc3)cc2)cc1 (configuration not stated)", "Label Value": "inactive"}
{"Molecule": "CCOC(=O)CC(=O)CSC1=NC2C(NN1)N(C)C(=O)N2C (configuration not stated)", "Label Value": "inactive"}
{"Molecule": "COc1ccc(OC)c(NC2=C(Cl)C(=O)C(C)=C(C)C2=O)c1", "Label Value": "inactive"}
{"Molecule": "C#C[C@]1(O)CC[C@H]2[C@@H]3CC=C4c5sc(Nc6nc(C)cc(OC)n6)nc5CC[C@]4(C)[C@H]3CC[C@@]21C", "Label Value": "inactive"}
{"Molecule": "COc1ccc2c(C3=C(c4cn(C)c5ccccc45)C(=O)NC3=O)coc2c1", "Label Value": "inactive"}
{"Molecule": "CCCC(=O)NC(c1cccnc1)c1cc(C(C)=O)c2cccnc2c1O (configuration not stated)", "Label Value": "inactive"}
{"Molecule": "c1ccc(-c2c(-c3ccccc3)[n+](Cc3ccc4ccccc4c3)c(-c3ccccc3)n2Cc2ccc3ccccc3c2)cc1", "Label Value": "active"}
{"Molecule": "Cc1cn(-c2cc(NC(=O)c3cncc(C#Cc4cnc5ccc(O[C@@H]6CCOC6)nn45)c3)cc(C(F)(F)F)c2)cn1", "Label Value": "active"}
{"Molecule": "Clc1ccccc1/C=C/c1nn2c(-c3ccncc3)nnc2s1", "Label Value": "inactive"}
{"Molecule": "CCCCCCNC(=O)Oc1ccc(/C(=C(/C)c2ccccc2)c2ccc(OCCN(C)C)cc2)cc1", "Label Value": "active"}
{"Molecule": "COC[C@@]1(C)CC[C@]2(C)CC[C@]3(C)C(=CC[C@@H]4[C@@]5(C)CCCNC(C)(C)[C@@H]5CC[C@]43C)C2C1 (some centres not stated)", "Label Value": "inactive"}
{"Molecule": "O=C(O)c1ccc(-n2cc(CNc3ccc(F)cc3)c(-c3ccc(C(F)(F)F)cc3)n2)cc1", "Label Value": "inactive"}
{"Molecule": "C/C=C/C=C1\\C[C@H]2CO[C@H](O2)C1=O", "Label Value": "inactive"}
{"Molecule": "CCNCc1c(-c2cccc(OC(F)(F)F)c2)[nH]c2ccc(N3CCCC3)cc2c1=O", "Label Value": "active"}
{"Molecule": "O=C1Nc2cc(OC(F)(F)F)ccc2Oc2ccc(-c3ccnc(N4CC[C@H](O)C4)c3)cc21", "Label Value": "active"}
{"Molecule": "Cc1nn(-c2ccccc2)c2nc(CCl)[nH]c(=O)c12", "Label Value": "inactive"}
{"Molecule": "COC1=C(c2ccccc2)C(=O)C(OC)=C(c2ccccc2)C1=O", "Label Value": "inactive"}
{"Molecule": "CC[C@]12C=CCN3CC[C@]4(C(=C(C(=O)OC)C1)Nc1cc5c(cc14)[C@@H]1[C@H](O5)[C@@H](O)[C@@]4(CC)CC(C(=O)OC)=C5Nc6cc(OC)ccc6[C@@]56CCN1[C@@H]46)[C@@H]32", "Label Value": "active"}
{"Molecule": "COc1ccc(-c2ccnc3c(C#N)c(Nc4ccccc4)nn23)cc1OC", "Label Value": "inactive"}
{"Molecule": "O=c1cc(-c2ccccc2)nc2sc(-c3c[nH]c4ccc(F)cc34)nn12", "Label Value": "inactive"}
{"Molecule": "CC(=O)Nc1nc2c(s1)C1=CC[C@H]3[C@@H]4CC[C@H](C(C)=O)[C@@]4(C)CC[C@@H]3[C@@]1(C)CC2", "Label Value": "inactive"}
{"Molecule": "Cc1occc1-c1nc2s/c(=C\\c3cn(-c4ccccc4)nc3-c3ccccc3)c(=O)n2n1", "Label Value": "inactive"}
{"Molecule": "COc1ccc(-c2cc(-c3ccc(Cl)cc3)nc3nc(N)nn23)cc1", "Label Value": "inactive"}
{"Molecule": "CCNCCCn1c2c(c3cc(OC)c(OC)cc3c1=O)C(=O)c1cc(OC)cnc1-2", "Label Value": "inactive"}
{"Molecule": "CCOC(=O)/C=c1\\sc2n(c1=O)C1C(NN=2)N(CC)C(=O)N1CC (configuration not stated)", "Label Value": "inactive"}
{"Molecule": "COc1ccc(CCN2C(=O)CSC2=S)cc1OC", "Label Value": "inactive"}

###

The entries below are paired with their reported growth.
Test system: SF-268 CNS
Assay: NCI-60 one-dose screen, 48 h (100 = growth as untreated, 0 = no growth, -100 = all killed)
Conditions: 10 µM unless noted
Compounds without any hit were thinned out: in the full panel of roughly 83,000, 20% have a hit. Activity calls are given as the source filed them. How the source made its calls: active means growth percent below 10; inactive means the rest.

{"Compound": "O=C(Nc1cc(F)cc2cccnc12)c1cnc(N2CCOCC2)cn1", "growth": "94.3% (inactive)"}
{"Compound": "Cc1nn(-c2ccc(Cl)cc2)c(C)c1N=Nc1ccc2oc(=O)ccc2c1", "growth": "85.1% (inactive)"}
{"Compound": "O=c1c2ccccc2nc(COc2ccccc2)n1/N=C/C=C/c1ccccc1", "growth": "97.5% (inactive)"}
{"Compound": "CC(=O)Oc1ccc(CCN2C(=O)CSC2=S)cc1", "growth": "92.1% (inactive)"}
{"Compound": "CC(C)C(=O)Nc1ccc(-c2nc(-c3cccc(O)c3)c(-c3ccnc(Br)c3)[nH]2)cc1", "growth": "54.8% (inactive)"}
{"Compound": "CC(=O)NC(C)(C)C(=O)N1CCC[C@H]1C(=O)NC(C)(C)C(=O)N[C@@H](C)C(=O)NC(C)(C)C(=O)NC(C)(C)C(=O)N[C@@H](CCC(N)=O)C(=O)NC(C)(C)C(=O)N[C@H](C(=O)NC(C)(C)C(=O)NCC(=O)N[C@@H](CC(C)C)C(=O)NC(C)(C)C(=O)N1CCC[C@H]1C(=O)N[C@H](C(=O)NC(C)(C)C(=O)NC(C)(C)C(=O)N[C@@H](CCC(N)=O)C(=O)N[C@@H](CCC(N)=O)C(=O)N[C@H](CO)Cc1ccccc1)C(C)C)C(C)C", "growth": "32.9% [4.25 µM] (inactive)"}
{"Compound": "COc1cc(/C=C/C(=O)c2ccc(N3CCN(C)CC3)cc2)ccc1F", "growth": "97.8% (inactive)"}
{"Compound": "CC(=O)c1ccc(NC(=O)COc2ccc(C3SCC(=O)N3c3ccc(Br)cc3)cc2)cc1 (configuration not stated)", "growth": "103% (inactive)"}
{"Compound": "CCC(=O)Nc1ccc(-c2nc(-c3cccc(O)c3)c(-c3ccnc(Br)c3)[nH]2)cc1", "growth": "82.1% (inactive)"}
{"Compound": "CCOC(=O)/C=c1\\sc2n(c1=O)C1C(NN=2)N(CC)C(=O)N1CC (configuration not stated)", "growth": "81.1% (inactive)"}
{"Compound": "NC(N)=NS(=O)(=O)c1ccc(N=NC2C(=O)NN(c3ccccc3)C2=O)cc1 (configuration not stated)", "growth": "102% (inactive)"}
{"Compound": "C#C[C@]1(O)CC[C@H]2[C@@H]3CC=C4c5sc(Nc6cccc(C)n6)nc5CC[C@]4(C)[C@H]3CC[C@@]21C", "growth": "-7.63% (active)"}
{"Compound": "COc1ccc(-c2no[n+]([O-])c2Nc2ccccc2Br)cc1", "growth": "92.4% (inactive)"}
{"Compound": "CN(c1ccc(Cl)cc1)S(=O)(=O)c1ccc(-c2cnc(C3CC3)o2)cc1", "growth": "40.2% (inactive)"}
{"Compound": "CN1C(=O)N(C)C2Nn3c(s/c(=C\\c4ccccn4)c3=O)=NC21 (configuration not stated)", "growth": "103% (inactive)"}
{"Compound": "CN(C)c1ccc(/C=N/Nc2nc(N/N=C/c3ccc(N(C)C)cc3)nc(N3CCOCC3)n2)cc1", "growth": "97.8% (inactive)"}
{"Compound": "CS(=O)c1nccc(-c2c(-c3ccc(F)c(OCCc4ccccc4)c3)nc3sccn23)n1 (configuration not stated)", "growth": "101% (inactive)"}
